- assayedSystem: MetJ dimer–DNA complex (F-metC) (Escherichia coli)
- Sequence (P0A8U6 2-105, one chain of several): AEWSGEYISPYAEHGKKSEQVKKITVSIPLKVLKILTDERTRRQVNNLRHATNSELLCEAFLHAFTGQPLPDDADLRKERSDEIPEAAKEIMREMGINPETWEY
- methodNotes: Fluorescence anisotropy assay: MetJ titrated into F-metC DNA and ligand, MetJ dimer–DNA complex formation
- Assay type: binding
- runConditions: unquaternised ligands 2 mM; F-metC 10 nM; average of three titrations; read-out: EC50, concentration of MetJ monomer required to promote half-maximal formation of its complex with the F-metC DNA
pEC50: −log10 of the molar value.
Hi, to clarify the labels: label 1 covers pEC50 from 7 upward, label 0 covers anything below 7.

## Task Could you please find out whether CN(CCCC(=O)NCCCNC(=O)CCCN(C)C[C@H]1O[C@@H](n2cnc3c(N)ncnc32)[C@H](O)[C@@H]1O)C[C@H]1O[C@@H](n2cnc3c(N)ncnc32)[C@H](O)[C@@H]1O [Compound 18b] has pEC50 that meets 7 or exceeds it?
## Result label 0

## Task Same lookup for CN(CCCC(=O)NCCNC(=O)CCCN(C)C[C@H]1O[C@@H](n2cnc3c(N)ncnc32)[C@H](O)[C@@H]1O)C[C@H]1O[C@@H](n2cnc3c(N)ncnc32)[C@H](O)[C@@H]1O [Compound 18a] , please.
## Result label 0

## Task Same lookup for CN(CCCC(=O)NCCCCCCNC(=O)CCCN(C)C[C@H]1O[C@@H](n2cnc3c(N)ncnc32)[C@H](O)[C@@H]1O)C[C@H]1O[C@@H](n2cnc3c(N)ncnc32)[C@H](O)[C@@H]1O [Compound 18d] , please.
## Result label 1

## Task Same lookup for CN(CCCC(=O)NCCCCNC(=O)CCCN(C)C[C@H]1O[C@@H](n2cnc3c(N)ncnc32)[C@H](O)[C@@H]1O)C[C@H]1O[C@@H](n2cnc3c(N)ncnc32)[C@H](O)[C@@H]1O [Compound 18c] , please.
## Result label 0
